- ASSAY SYSTEM: BsCspB (cold shock protein B) (UniProt P32081 1-67)
- Sequence (P32081 whole entry): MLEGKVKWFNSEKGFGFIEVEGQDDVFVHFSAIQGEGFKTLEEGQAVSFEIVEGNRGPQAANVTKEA
- ASSAY EXPLANATION: intrinsic Trp fluorescence quenching; dilute (series a); 20 mM disodium phosphate pH 7.0, no added salt stated; fluorescence titration 298 K (0.5, 2.8 or 4 uM protein; table marks a/b not explained in the material); stopped-flow 288 K (60 or 300 nM protein); NMR 298 or 294.4 K with 5% D2O
- REPORTED CONDITIONS: protein: recombinant; single strand
MEASURED ENDPOINT: Kd (nM)
Entry rule: numbers only, all in nM.

INSERT INTO measurements (binder, measured_endpoint, measurement) VALUES
  ('TTTTTTT (ssDNA) [dT7]', 'Kd', 7);

Give Kd for the following binder: TTTTTT (ssDNA) [dT6] 30
